- assay_protocol: self-splicing fitness, log relative to wild type (ln ratio); higher = more splicing; Tetrahymena group I intron in knt gene, E. coli kanamycin selection, DiMSum; sequences stand for … in CUCUCU…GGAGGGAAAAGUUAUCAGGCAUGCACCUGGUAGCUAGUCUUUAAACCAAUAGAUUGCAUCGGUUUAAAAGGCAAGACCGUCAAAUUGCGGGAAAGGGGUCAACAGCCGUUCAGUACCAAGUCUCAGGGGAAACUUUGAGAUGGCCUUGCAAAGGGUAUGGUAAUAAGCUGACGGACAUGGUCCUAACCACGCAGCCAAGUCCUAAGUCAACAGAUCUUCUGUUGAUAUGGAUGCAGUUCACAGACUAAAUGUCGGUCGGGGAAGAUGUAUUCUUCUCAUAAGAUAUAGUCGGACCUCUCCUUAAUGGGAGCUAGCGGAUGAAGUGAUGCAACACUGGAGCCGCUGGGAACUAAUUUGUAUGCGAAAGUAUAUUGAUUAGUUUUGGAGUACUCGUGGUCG;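 also: selection with 25 µg/mL kanamycin versus none on LB agar overnight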
- applied_conditions: 37 °C

seq	self-splicing fitness (ln)
AGUUAGCAAUAUUACGAAAU	-1.62
UGCUAGCAAUAUUACGGGGC	-2.69
CAUAAGCAAUAUUACGAACU	-2.69
AGCAAGCAAUAUUACGAGCG	-0.223
CUUAAGCAAUAUUACGAUAU	-1.4
CCCCAGCAAUAUUACGGGAC	-2.12
UAUCAGCAAUAUUACGGGCU	-2.23
CCGGAGCAAUAUUACGGUAU	-3.34
UAAAAGCAAUAUUACGCGAG	-0.186
CCGUAGCAAUAUUACGAAAG	0.537
AUAAAGCAAUAUUACGAUAG	-0.468
UAUUAGCAAUAUUACGCAAA	-1.83
AGUGAGCAAUAUUACGGGCA	-1.73
UUAGAGCAAUAUUACGUGCU	-1.79
CAGCAGCAAUAUUACGUAAA	-1.95
GGCUAGCAAUAUUACGGACA	-0.398
CAAGAGCAAUAUUACGUUCA	-2.09
GUUCAGCAAUAUUACGCAAA	-0.625
CUACAGCAAUAUUACGUAGC	-2.54
UUCCAGCAAUAUUACGGCUU	-0.36
CACGAGCAAUAUUACGUGCC	-3.4
CAAAAGCAAUAUUACGUAAA	-1.32
CCCCAGCAAUAUUACGUAUC	-3.84
CAUCAGCAAUAUUACGUCUU	-2.19
ACCAAGCAAUAUUACGGUGU	-2.18
GACAAGCAAUAUUACGCCUA	-0.0625
AGACAGCAAUAUUACGAUCC	-0.102
UGAUAGCAAUAUUACGGAAU	-2
